Numbers sourced from patent US20160251438A1.

The following binders are shown together with reported fold improvement of KD (reference LHG-10) values.
targetSystem: T1, recombinant soluble human GARP-TGFβ1 complex (human, UniProt Q14392 20-628; P01137 30-390)
T1 construct: co-expressed in HEK293E, purified by the Strep-Tag; TGFβ consists of LAP and mature TGFβ; also called shGARP-TGFβ; rhGARP-TGFβ
T1 sequence (Q14392 other isoform, or with tags, fused parts or gaps limits assumed, chain 1 of 2): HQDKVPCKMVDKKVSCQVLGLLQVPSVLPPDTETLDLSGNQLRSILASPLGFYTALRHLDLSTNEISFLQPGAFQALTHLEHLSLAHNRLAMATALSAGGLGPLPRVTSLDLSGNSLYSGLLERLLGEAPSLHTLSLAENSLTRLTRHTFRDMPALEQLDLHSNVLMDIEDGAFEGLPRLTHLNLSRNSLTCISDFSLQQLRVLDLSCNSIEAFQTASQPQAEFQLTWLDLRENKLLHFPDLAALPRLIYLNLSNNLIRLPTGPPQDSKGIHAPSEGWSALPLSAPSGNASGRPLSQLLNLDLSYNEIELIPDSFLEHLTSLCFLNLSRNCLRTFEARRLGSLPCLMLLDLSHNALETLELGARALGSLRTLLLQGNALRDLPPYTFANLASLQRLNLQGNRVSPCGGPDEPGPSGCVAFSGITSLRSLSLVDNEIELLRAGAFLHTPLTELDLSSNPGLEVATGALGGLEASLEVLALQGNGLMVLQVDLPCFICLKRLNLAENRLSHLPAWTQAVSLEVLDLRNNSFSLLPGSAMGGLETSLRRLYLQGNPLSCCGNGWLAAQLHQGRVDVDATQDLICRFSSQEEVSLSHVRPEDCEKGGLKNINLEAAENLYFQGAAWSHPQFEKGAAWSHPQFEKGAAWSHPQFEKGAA
T1 sequence (P01137 30-390 limits assumed, chain 2 of 2): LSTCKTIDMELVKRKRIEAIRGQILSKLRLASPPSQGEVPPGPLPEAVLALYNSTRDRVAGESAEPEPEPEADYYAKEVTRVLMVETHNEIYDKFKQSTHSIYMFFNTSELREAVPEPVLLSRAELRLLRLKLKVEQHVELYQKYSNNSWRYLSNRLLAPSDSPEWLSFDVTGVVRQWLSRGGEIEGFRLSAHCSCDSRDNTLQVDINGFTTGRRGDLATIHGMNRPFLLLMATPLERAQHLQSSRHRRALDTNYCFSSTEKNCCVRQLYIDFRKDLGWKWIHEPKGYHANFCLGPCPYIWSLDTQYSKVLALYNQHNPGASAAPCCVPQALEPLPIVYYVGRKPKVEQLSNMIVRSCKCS
assay: SPR (Biacore), hGARP-TGFβ1 immobilised
State the answer as a number, implicitly in fold.

Examples with answers:
LHG-10 (antibody, human IgG1, V domains shown, llama-derived V regions in a full human IgG1) VH: EVQLVQPGAELRNSGASVKVSCKASGYRFTSYYIDWVRQAPGQGLEWMGRIDPEDGGTKYAQKFQGRVTFTADTSTSTAYVELSSLRSEDTAVYYCARNEWETVVVGDLMYEYEYWGQGTQVTVSS VL: DIQMTQSPTSLSASLGDRVTITCQASQSISSYLAWYQQKPGQAPKLLIYGASRLQTGVPSRFSGSGSGTSFTLTISGLEAEDAGTYYCQQYDSLPVTFGQGTKVELK
1
LHG-10.4 (antibody, human IgG1, V domains shown, VK-shuffled variant of LHG-10, human IgG1) VH: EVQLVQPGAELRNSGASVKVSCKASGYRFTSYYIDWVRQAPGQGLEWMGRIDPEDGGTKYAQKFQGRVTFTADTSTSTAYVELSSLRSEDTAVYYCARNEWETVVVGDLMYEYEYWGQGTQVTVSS VL: DIQMTQSPSSLSASLGDRVTITCQASQSISSYLAWYQQKPGQAPKLLIYGTSRLKTGVPSRFSGSGSGTSFTLTISGLEAEDAGTYYCQQYYSAPVTFGQGTKVELK
4.5
LHG-10.6 (antibody, human IgG1, V domains shown, VK-shuffled variant of LHG-10, human IgG1) VH: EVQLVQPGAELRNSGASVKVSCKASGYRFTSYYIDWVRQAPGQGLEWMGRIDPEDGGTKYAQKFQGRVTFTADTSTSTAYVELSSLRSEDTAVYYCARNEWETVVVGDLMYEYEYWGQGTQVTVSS VL: DIQMTQSPSSLSASLGDRVTITCQASQSISSYLAWYQQKPGQAPNILIYGASRLKTGVPSRFSGSGSGTSFTLTISGLEAEDAGTYYCQQYASVPVTFGQGTKVELK
8.2
LHG-10.3 (antibody, human IgG1, V domains shown, VK-shuffled variant of LHG-10, human IgG1) VH: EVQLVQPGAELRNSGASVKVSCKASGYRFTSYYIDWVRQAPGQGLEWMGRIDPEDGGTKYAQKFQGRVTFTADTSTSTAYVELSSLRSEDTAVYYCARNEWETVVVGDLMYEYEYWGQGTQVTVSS VL: DIQMTQSPSSLSASLGDRVTITCQASQSIVSYLAWYQQKPGQAPKLLIYGASRLQTGVPSRFSGSGSGTSFTLTISGLEAEDAGTYYCQQYASAPVTFGQGTGVELK
5.9

Now examine the next entry.
Challenge: Reported fold improvement of KD (reference LHG-10) for LHG-10.5 (antibody, human IgG1, V domains shown, VK-shuffled variant of LHG-10, human IgG1) VH: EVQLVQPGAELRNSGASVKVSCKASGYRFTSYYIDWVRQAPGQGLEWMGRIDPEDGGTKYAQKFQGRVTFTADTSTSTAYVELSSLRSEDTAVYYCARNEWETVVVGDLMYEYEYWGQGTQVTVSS VL: DIQMTQSPSSLSPSLGDRVTITCQASQTISSFLAWYHQKPGQPPKLLIYRASIPQTGVPSRFSGSGSGTSFTLTIGGLEAEDAGTYYCQQYVSAPPTFGQGTKVELK : what is it?
Response given: 4
